# assayTarget: FAD-linked sulfhydryl oxidase ALR (Homo sapiens) (UniProt P55789)
# Sequence (P55789 whole entry, looked up): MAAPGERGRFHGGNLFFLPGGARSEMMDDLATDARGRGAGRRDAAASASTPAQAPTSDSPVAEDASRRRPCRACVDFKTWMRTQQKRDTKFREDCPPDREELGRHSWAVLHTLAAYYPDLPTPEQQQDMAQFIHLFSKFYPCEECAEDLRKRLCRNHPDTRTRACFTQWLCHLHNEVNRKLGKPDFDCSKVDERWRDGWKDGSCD
# testName: ALR-catalysed DTT oxidation blockers – biochemical, H2O2 detection, HRP-luminol luminescence, single point, primary screen (AID 485317)
# assayContext: purified ALR, concentration not given here
The whole screen tested about 290,000 compounds, of which about 11,000 (3.8%) were called active.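 Rule for the calls: active = mean replicate inhibition above about 79%, with every replicate also reaching it (limit read from the data); inconclusive = only one of the two criteria met; inactive = mean below limit and not every replicate reaching it.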 This is one part of a sample in which actives are shown more often than they occur.
Possible outcomes: active, inactive

molecule=CCOC(=O)C1CCN(S(=O)(=O)c2ccc3c(c2)N(C(C)=O)CCO3)CC1 cat=inactive
molecule="COc1ccc(C2=NN(C(=O)CSc3nnnn3C)C(c3ccco3)C2)cc1 (stereo not given)" cat=inactive
molecule=COc1ccc(N2CCN(S(=O)(=O)c3ccc4c(c3)N(C(C)=O)CCO4)CC2)cc1 cat=active
molecule=CCOC(=O)c1ccccc1NC(=O)CSc1nc2ccccc2c(=O)[nH]1 cat=inactive
molecule=CC(=O)N1CCOc2ccc(S(=O)(=O)N3CCN(c4cccc(C(F)(F)F)c4)CC3)cc21 cat=inactive
